Each recorded value in this set is attributed to ChEMBL document CHEMBL1155317.

# EXPERIMENTAL DETAILS: Clearance in rat at 1 mg/kg, iv and 1 mg/kg, po
# Assay type: ADME, organism-based
# TEST PARAMETERS: in vivo
MEASURED QUANTITY: clearance (mL/min/kg)

| SMILES INPUT | UNITS LABEL | clearance |
| --- | --- | --- |
| CNC(=O)c1nccc2c(O[C@@H](C)C(=O)N3CCN(C(=O)c4ccccc4)C[C@H]3C)cccc12 | mL/min/kg | 41 |

[I] CNC(=O)c1cc(OC)c(O[C@@H](C)C(=O)N2CCN(c3nccc4ccccc34)C[C@H]2C)cn1
[II] CNc1ccc2c(O[C@@H](C)C(=O)N3CCN(C(=O)c4ccccc4)C[C@H]3C)cccc2n1
stdin: Response body: label of entry with the larger clearance; valid values I , II . // output: label of the selected item
stdout: I
(I: 48 mL/min/kg, II: 27 mL/min/kg)

* * *

# Tested on: Human immunodeficiency virus 1
# EXPERIMENTAL DETAILS: Antiviral activity against Human immunodeficiency virus 1 NL4-3 infected HeLaP4 cells after 5 days by beta-galactosidase reporter assay
# Assay type: functional, organism-based
# TEST PARAMETERS: Human immunodeficiency virus 1, NL4-3, HeLaP4, 120 h
MEASURED QUANTITY: IC50 (µM)

Here is how some compounds turned out for IC50.
| COMPOUND | IC50 / µM |
| --- | --- |
| CNC(=O)c1cc(OC)c(O[C@@H](C)C(=O)N2CCN(c3nccc4[nH]cnc34)C[C@H]2C)cn1 | 0.007 |
| CC(Oc1cccc2ncccc12)C(=O)N1CCN(C(=O)c2ccccc2)C[C@H]1C (some centres undefined) | 0.271 |
| CNC(=O)c1cc(OC)c(O[C@@H](C)C(=O)N2CCN(c3nccc4ccccc34)C[C@H]2C)cn1 | 0.00012 |
| CNC(=O)c1cc(OC)c(O[C@@H](C)C(=O)N2CCN(c3n[nH]c4ccccc34)C[C@H]2C)cn1 | 0.979 |
| Cc1n[nH]c2cccc(OC(C)C(=O)N3CCN(C(=O)c4ccccc4)C[C@H]3C)c12 (some centres undefined) | 0.036 |
| CNc1ccc2c(O[C@@H](C)C(=O)N3CCN(C(=O)c4ccccc4)C[C@H]3C)cccc2n1 | 0.013 |

[I] CC(Oc1cccc2c(=O)[nH]ccc12)C(=O)N1CCN(C(=O)c2ccccc2)C[C@H]1C (some centres undefined)
[II] CNC(=O)c1nccc2c(O[C@@H](C)C(=O)N3CCN(C(=O)c4ccccc4)C[C@H]3C)ccc(F)c12
stdin: I need your help: which of the pair I , II has higher IC50? Reply with the label of the item you choose.
stdout: I
(I: 1.05 µM, II: 0.02 µM)

[a] CNC(=O)c1cc(OC)c(O[C@@H](C)C(=O)N2CCN(c3nccc4ncccc34)C[C@H]2C)cn1
[b] CNC(=O)c1cc(OC)c(O[C@@H](C)C(=O)N2CCN(c3nccc4[nH]ncc34)C[C@H]2C)cn1
stdin: Endpoint returns whichever of a and b has the numerically higher IC50. Answer = label.
stdout: a
(a: 0.126 µM, b: 0.006 µM)

[a] CNC(=O)c1cc(OC)c(O[C@@H](C)C(=O)N2CCN(c3ncccn3)C[C@H]2C)cn1
[b] CNC(=O)c1nccc2c(O[C@@H](C)C(=O)N3CCN(C(=O)c4ccccc4)C[C@H]3C)cccc12
[c] CC(Oc1cccc2cnccc12)C(=O)N1CCN(C(=O)c2ccccc2)C[C@H]1C (some centres undefined)
[d] Cc1nn(C)c2cccc(OC(C)C(=O)N3CCN(C(=O)c4ccccc4)C[C@H]3C)c12 (some centres undefined)
[e] CC(Oc1cccc2ccccc12)C(=O)N1CCN(C(=O)c2ccccc2)C[C@H]1C (some centres undefined)
stdin: Arrange these 5 compounds in increasing order of IC50. Please reply with the labels ordered as requested. Many thanks.
stdout: b, d, c, e, a

[P] CC(Oc1cccc2ccncc12)C(=O)N1CCN(C(=O)c2ccccc2)C[C@H]1C (some centres undefined)
[Q] CC(Oc1cccc2cccnc12)C(=O)N1CCN(C(=O)c2ccccc2)C[C@H]1C (some centres undefined)
stdin: Could you point out whether the larger IC50 belongs to P or to Q ? Returns: label corresponding to the selected item.
stdout: P
